# system name: T1, cynomolgus monkey CCR8 (cynomolgus monkey, UniProt G7NYJ2 1-355)
# T1 construct: whole, on cells; also called CynoCCR8
# T1 sequence (G7NYJ2 entry or part of it): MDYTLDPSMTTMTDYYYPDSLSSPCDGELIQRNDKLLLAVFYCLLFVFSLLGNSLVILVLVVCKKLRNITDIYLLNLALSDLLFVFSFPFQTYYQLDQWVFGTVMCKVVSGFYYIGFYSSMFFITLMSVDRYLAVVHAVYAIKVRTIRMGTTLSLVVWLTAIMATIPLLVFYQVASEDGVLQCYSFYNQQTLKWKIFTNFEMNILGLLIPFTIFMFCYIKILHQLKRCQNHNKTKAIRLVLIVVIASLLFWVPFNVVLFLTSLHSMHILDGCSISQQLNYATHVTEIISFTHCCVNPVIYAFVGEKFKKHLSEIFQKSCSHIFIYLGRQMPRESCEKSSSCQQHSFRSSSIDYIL
# run description: FACS, CHO-K1-CynoCCR8 cells
# Description: Cells overexpressing cynomolgus monkey CCR8, CHO-K1-CynoCCR8, were digested with pancreatin, counted and resuspended to a cell density of 1E6 cells/mL. The cell suspension was added to a 96-well V-bottom plate at 100 μL/well and centrifuged at 300 g for 5 min, and the supernatant was discarded. The anti-CCR8 antibodies provided herein was used as a primary antibody and diluted in a 5-fold gradient with an FACS buffer (DPBS containing 2% FBS) from 200 nM. […]

- binder: "PR004339 (antibody, human IgG1, kappa, V domains shown, light-chain semi-humanized variant of PR004128, IgG1 with DE mutation) VH: EVQLVESGGGLVQPKGSLKLSCAASGFTFNTYAMNWVRQAPGKGLEWVARIRSKSNNYATYYADSVKDRFTISRDDSQSMLYLQMNNLKTEDTAMYYCVRGKENGNYYAMDFWGQGTSVTVSA VL: DIVMTQSPLSLPVTPGEPASISCRSSKSLLHSNGKIYLYWFLQKPGQSPQLLIYRMSNLASGVPDRFSGSGSGTDFTLKISRVEAEDVGVYYCMQHLEYPLTFGQGTKLEIKR"
  EC50: "9.58 nM"
